Assignment: determine reported phosphorylation enrichment for the given sequences.
tested_system: EPHB1 (UniProt P54762)
Sequence (P54762 whole entry, looked up): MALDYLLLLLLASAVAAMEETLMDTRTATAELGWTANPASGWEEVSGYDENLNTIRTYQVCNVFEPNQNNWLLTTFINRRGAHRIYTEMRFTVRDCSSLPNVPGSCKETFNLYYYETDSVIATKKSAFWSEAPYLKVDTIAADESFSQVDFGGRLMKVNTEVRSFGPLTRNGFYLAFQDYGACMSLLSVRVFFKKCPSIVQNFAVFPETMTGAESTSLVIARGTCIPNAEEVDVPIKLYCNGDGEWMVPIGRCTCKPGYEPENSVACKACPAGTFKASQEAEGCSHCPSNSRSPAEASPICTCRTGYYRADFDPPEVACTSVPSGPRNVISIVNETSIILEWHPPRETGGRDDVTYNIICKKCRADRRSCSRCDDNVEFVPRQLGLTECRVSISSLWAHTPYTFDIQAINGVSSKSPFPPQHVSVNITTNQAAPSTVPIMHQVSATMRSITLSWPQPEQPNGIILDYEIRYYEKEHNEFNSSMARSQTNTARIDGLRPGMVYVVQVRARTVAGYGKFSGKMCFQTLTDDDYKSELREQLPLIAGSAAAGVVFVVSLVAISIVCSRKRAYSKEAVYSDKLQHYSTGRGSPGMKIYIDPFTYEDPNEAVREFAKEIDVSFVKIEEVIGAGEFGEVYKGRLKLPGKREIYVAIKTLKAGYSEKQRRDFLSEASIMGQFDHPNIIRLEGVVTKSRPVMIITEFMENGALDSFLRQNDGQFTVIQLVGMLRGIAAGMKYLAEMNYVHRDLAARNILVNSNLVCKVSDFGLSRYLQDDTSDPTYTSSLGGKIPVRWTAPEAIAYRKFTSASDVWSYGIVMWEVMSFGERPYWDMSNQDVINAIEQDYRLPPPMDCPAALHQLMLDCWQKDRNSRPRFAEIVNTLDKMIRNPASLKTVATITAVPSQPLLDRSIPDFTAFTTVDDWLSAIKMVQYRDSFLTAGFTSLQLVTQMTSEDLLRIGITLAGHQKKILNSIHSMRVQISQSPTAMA
procedure_text: phosphorylation enrichment, bacterial display (enrichment ratio); higher = better substrate or ligand; peptides without Tyr show the background

Sample records with phosphorylation enrichment:
SNKELYEKYMI	0.652
AQESNYRLLRQ [SLC20A2_Y377_R382Q]	0.785
DAGTDYVGISR [FREM2_Y2061]	0.445
WQQQSYLDYGI [CTNNB1_Y30_S33Y]	0.808
LKMLVYMDMSK [LRRC7_Y234_L235M]	1.79

Below are some sequences; for each one, tell me its phosphorylation enrichment.
1. QTWKTYVRHQQ [SFI1_Y164_Q167H]
2. PPNSPYMGSSP [KCNT1_Y740_I741M]

1. 0.548
2. 0.497

I would be grateful if you could provide phosphorylation enrichment for each of the following entries.
1. IHHIDYYKKTT [FGFR1_Y653]
2. LGGAMYYLEAD [PKHD1_Y452_E457D]
3. MGGSLYFSYPD [HIKESHI_Y55_V54L]
4. INNKMYDPKMN [ENPP1_Y280_D276N]
5. RESYKYFPSSL [CXXC1_Y218]
6. FTRNYYVRAVL [CYBA_Y88]
7. SGGSSYGSGGC [KRT1_Y532_G537C]
8. ASYGPNTRVQS [FOXL2_Y258_Y258N]

1. 0.408
2. 0.839
3. 4.44
4. 0.44
5. 0.651
6. 0.622
7. 0.558
8. 0.474

* * *

Test system: c-Src
procedure_text: phosphorylation enrichment, bacterial display (enrichment ratio); higher = better substrate or ligand; peptides without Tyr show the background
Give phosphorylation enrichment for every item shown.
Numbers only.

CRPPFYHRNCM [HGD_Y334_F329C_YF]	0.901
RLRKYHLGKYL [KLB_Y906_Y906H]	0.387

Lab note: each sequence below needs its phosphorylation enrichment filled in.
1. KNRDVSSSDYF [USP24_Y2134_Y2134S]
2. IDFARYWHGND [MMP11_Y162_D166N]
3. SYKNKYGMVAQ [APOB_Y276]

[0.543, 0.345, 0.569]

// batch mode: one phosphorylation enrichment value per listed entry
1. LNARHYGGLTG [PGAM2_Y92_E89A]
2. PTDCVYVMPTV [MYO7A_Y1668_S1666C]

0.631
4.95

* * *

tested_system: EPHB2 (UniProt P29323)
Sequence (P29323 whole entry, looked up): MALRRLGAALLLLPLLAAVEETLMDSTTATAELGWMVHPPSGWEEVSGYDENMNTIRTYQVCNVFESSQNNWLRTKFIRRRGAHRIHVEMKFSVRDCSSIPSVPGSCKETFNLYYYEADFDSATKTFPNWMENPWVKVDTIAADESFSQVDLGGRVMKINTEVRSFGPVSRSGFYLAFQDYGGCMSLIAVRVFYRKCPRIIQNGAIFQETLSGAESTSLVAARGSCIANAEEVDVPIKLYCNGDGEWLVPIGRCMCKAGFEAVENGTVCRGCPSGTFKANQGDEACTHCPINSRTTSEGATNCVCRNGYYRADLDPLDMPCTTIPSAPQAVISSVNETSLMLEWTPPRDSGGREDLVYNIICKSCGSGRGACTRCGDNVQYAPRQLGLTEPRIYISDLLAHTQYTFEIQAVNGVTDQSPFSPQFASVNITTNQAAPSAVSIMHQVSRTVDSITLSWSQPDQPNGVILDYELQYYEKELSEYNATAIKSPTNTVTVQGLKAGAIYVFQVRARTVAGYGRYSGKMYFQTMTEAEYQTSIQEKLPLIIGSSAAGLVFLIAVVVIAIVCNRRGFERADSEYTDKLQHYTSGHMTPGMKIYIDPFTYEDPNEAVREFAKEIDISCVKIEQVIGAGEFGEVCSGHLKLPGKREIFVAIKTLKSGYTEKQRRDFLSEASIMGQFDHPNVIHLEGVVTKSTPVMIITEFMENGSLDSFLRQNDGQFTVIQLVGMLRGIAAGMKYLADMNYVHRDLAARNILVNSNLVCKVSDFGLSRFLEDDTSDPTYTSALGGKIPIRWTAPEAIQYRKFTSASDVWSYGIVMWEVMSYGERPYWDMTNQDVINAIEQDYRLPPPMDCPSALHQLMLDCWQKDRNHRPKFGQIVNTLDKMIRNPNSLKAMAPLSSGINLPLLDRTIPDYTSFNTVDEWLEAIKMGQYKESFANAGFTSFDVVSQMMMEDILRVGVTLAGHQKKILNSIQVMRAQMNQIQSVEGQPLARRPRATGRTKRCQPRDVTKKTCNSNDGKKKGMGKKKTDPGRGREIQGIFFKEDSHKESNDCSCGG
procedure_text: phosphorylation enrichment, bacterial display (enrichment ratio); higher = better substrate or ligand; peptides without Tyr show the background
# if value of phosphorylation enrichment reaches 0.6, tag T; if it stays below, tag F

SDLTDYLMKIL [ACTA1_Y190_R185S]	T
GLQDEYDFKCK [STAT1_Y170_D165G]	T
MKGEFYRFLAE [YWHAG_Y131_D129E_YF]	F
NQNIGYELGHR [KCNN3_Y268_K269E]	F

Check if phosphorylation enrichment >= 0.6 (inclusive). Item: QLQTNYPSSDN [MAX_Y115]
T

* * *

tested_system: Jak2 (UniProt O60674)
Sequence (O60674 whole entry, looked up): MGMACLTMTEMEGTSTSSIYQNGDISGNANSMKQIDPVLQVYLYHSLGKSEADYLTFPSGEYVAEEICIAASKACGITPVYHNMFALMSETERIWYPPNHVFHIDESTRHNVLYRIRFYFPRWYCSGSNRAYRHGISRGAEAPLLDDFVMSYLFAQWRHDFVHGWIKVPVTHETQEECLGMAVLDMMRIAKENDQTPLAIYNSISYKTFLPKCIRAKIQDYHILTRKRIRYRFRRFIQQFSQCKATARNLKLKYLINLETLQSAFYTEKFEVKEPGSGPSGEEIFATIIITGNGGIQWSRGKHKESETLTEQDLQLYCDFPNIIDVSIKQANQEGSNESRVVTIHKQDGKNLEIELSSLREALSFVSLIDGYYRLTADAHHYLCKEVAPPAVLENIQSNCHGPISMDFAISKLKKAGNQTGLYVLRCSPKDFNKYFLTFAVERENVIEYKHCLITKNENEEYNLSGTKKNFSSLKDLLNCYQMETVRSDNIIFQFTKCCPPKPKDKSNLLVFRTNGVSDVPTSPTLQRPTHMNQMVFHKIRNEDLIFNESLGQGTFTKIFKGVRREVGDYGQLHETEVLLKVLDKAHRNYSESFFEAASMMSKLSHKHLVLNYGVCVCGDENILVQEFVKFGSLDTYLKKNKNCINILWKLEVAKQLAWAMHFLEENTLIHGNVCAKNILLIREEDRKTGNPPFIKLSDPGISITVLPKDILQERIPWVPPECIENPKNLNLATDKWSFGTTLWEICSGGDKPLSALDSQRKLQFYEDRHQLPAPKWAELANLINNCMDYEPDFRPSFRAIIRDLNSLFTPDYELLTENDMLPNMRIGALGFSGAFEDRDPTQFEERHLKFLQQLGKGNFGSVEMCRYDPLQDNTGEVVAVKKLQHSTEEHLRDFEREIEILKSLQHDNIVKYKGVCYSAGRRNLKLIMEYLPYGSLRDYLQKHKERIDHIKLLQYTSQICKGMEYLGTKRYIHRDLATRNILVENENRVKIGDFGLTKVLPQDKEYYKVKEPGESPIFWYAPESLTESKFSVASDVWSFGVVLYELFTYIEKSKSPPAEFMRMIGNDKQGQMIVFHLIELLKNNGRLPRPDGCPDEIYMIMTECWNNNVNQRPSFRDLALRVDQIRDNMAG
procedure_text: phosphorylation enrichment, bacterial display (enrichment ratio); higher = better substrate or ligand; peptides without Tyr show the background
measured_metric: phosphorylation enrichment
Numbers only.

KVGRVYLFLQP [ITGA2B_Y360_E355K]	0.983

Could you tell me phosphorylation enrichment for each of these sequences? They are listed below.
1. TEQDPYNNIVH [MMUT_Y364_R369H]
2. APRKVYDTRDD [ZFPL1_Y215]
3. TDIVAYSGRVQ [SPTBN2_Y477]

1: 0.788; 2: 0.614; 3: 1.48

* * *

tested_system: FGFR3 (UniProt P22607)
Sequence (P22607 whole entry, looked up): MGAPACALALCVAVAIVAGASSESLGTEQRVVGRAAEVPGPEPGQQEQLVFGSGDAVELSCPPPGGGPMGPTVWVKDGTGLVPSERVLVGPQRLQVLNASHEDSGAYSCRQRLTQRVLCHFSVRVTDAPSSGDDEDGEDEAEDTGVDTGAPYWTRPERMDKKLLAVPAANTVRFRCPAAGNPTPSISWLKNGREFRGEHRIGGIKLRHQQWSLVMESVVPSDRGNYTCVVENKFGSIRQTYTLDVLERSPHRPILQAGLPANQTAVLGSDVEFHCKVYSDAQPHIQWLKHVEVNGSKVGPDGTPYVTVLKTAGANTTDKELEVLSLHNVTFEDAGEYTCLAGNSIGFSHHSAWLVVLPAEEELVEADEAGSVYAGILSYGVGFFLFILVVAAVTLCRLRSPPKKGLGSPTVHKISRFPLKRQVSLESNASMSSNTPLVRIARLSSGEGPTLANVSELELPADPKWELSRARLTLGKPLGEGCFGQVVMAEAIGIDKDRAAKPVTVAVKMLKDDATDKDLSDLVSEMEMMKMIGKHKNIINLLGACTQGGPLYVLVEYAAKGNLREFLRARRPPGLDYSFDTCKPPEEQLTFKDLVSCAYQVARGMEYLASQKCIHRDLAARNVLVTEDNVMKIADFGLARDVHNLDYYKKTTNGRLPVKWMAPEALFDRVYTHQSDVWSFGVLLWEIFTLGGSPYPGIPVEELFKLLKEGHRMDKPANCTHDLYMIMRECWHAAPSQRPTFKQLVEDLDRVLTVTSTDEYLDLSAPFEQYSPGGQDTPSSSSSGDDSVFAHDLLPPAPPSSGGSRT
procedure_text: phosphorylation enrichment, bacterial display (enrichment ratio); higher = better substrate or ligand; peptides without Tyr show the background
Record form. Attribute: phosphorylation enrichment. Fill in for each entry.
Numbers only.

GGYNNYGYGND [HNRNPH3_Y159]	0.688
ARIVDYNIIGW [MYH7_Y588_G584R]	0.839
KDQPDYKFQPR [SOX9_Y172_H169Q_YF]	0.529
FVKEPYIQSRF [HIPK4_Y175_YF]	0.479
HSVLNYGVCVC [JAK2_Y613_L609S]	0.84
ADRNHYRRFRR [YBX1_Y145_P149R_YF]	0.721
LKEIHYPPFTD [ALDH3B2_Y362_YF]	0.555
HKANEYYPVVL [ADAMTS18_Y764]	15.7

Hey, quick one: what's phosphorylation enrichment for each of these?
1. SELVRYDARVH [MET_Y971]
2. LAGRYYALKSM [CKB_Y174]
3. NLAAQYTTVGR [SGSH_Y240_D235N]
4. IGEGTYRTVFK [CDK5_Y15_G16R]
5. HNLDYYKETTN [FGFR3_Y648_K650E]

0.627
0.957
0.375
0.533
2.12

Hi! Can you tell me phosphorylation enrichment for each of these sequences?
1. KGRAGYTTVAV [RET_Y752]
2. SVTCTYFPALN [TP53_Y126_S127F]
3. FADIAYNYRHG [PAH_Y166]
4. TTASRYLKVSD [MYOM2_Y871_N869S]
5. IHRWVYPLTPE [EIF2B5_Y319_R315H]
6. ALLTKYSRSSM [DSCC1_Y374_H376R]

0.412
1.01
0.561
0.467
0.698
0.554

Fill in phosphorylation enrichment for each of the 2 sequences listed.
1. SEVVPYEPPEV [TP53_Y220_V216E]
2. FCRHNYGVGES [HLA-DRB1_Y112_V115G_YF]

0.81
0.573

Here are 5 sequences. What values of phosphorylation enrichment were reported for them?
1. LQPNNCQFCGG [CSF1R_Y969_Y969C]
2. RLDGEYFTLQI [TP53_Y327_P322R]
3. CFVFFYSFLLK [PTEN_Y178_R173C_YF]
4. ELPEKYSQNIC [PKP2_Y626_Y631C]
5. HTLQLYRCREE [ALPK3_Y342]

1. 1.21
2. 4.05
3. 0.865
4. 0.599
5. 0.7

* * *

tested_system: Hck (UniProt P08631)
Sequence (P08631 whole entry, looked up): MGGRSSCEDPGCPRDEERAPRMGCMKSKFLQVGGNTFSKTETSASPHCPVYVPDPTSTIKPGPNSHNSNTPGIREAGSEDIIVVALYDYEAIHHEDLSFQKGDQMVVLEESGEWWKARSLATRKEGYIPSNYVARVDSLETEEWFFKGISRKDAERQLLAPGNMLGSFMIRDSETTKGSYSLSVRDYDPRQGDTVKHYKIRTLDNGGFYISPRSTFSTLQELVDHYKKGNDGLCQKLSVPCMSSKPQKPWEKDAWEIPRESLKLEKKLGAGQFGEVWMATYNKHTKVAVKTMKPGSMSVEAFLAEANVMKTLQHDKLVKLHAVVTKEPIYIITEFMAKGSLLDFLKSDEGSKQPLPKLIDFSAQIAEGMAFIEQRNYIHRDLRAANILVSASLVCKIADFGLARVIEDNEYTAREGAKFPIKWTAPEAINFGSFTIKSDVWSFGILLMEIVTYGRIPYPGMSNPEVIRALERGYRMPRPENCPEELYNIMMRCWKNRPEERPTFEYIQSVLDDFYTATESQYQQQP
procedure_text: phosphorylation enrichment, bacterial display (enrichment ratio); higher = better substrate or ligand; peptides without Tyr show the background
Consider the following sequences; for each one, report its phosphorylation enrichment.
Answers are plain numbers.

Some solved entries appear below for comparison.
SKKVRYVVSKA [BARD1_Y156]	0.372
MHDSNCVSKGS [PDGFRA_Y849_Y849C]	0.456
KASIMYPSSNC [CXCL11_Y52_N55S]	0.429

List phosphorylation enrichment for every entry below, keeping the order given.
1. ASNFNYFFHRE [KCNA1_Y413_V408A_YF]
2. DLKFHYDNTAG [KDR_Y1214_P1210L]

0.654
0.462

* * *

tested_system: EPHB2 (UniProt P29323)
procedure_text: phosphorylation enrichment, bacterial display (enrichment ratio); higher = better substrate or ligand; peptides without Tyr show the background
Please respond with reported phosphorylation enrichment for every item in the list.
Give bare numbers.

FQNSLYAPDFS [FAM92A_Y226_R222Q_YF]	4.54

Batch lookup, phosphorylation enrichment per entry.
1. RDMNACIRPSP [MMAA_Y207_Y207C]
2. DPNQQYFIAMD [TBX15_Y159_H156N_YF]
3. RKETFYILSCR [GUCY2C_Y681_T682I]
4. SHGKRYRVPSD [HHIPL2_Y395]
5. FSEVRYMKEPY [HIPK4_Y170_V171M]

1.07
0.443
0.474
0.274
0.496

Retrieve phosphorylation enrichment measured for AKLVQYFMEHH [PTPN11_Y80_E76K_YF] and print it.
0.505

* * *

tested_system: SHP2-C SH2;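 further: peptide library displayed on the E. coli surface as eCPX fusions, selected cells deep-sequenced, score is each peptide's frequency after selection divided by its frequency in the input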
procedure_text: SH2 binding enrichment of the phosphorylated peptide, bacterial display (enrichment ratio); higher = better substrate or ligand; peptides without Tyr show the background
Answer F if SH2 binding enrichment is under 0.7, and T if it is 0.7 or more.

Examples with answers:
GKPENYRRLDI [VHL_Y175_V170G]	T
FTHSDYQFSQR [PKP2_Y166_YF]	T
AKFPSYEKNKK [FOXL2_Y91_F90S]	T

Decide: is the reported value of SH2 binding enrichment for LFMGDYVDRGY [PPP2CA_Y86] equal to or greater than 0.7?
T

Does PIPAAYNKYDQ [CDC73_Y290_R292K] have a reported SH2 binding enrichment of at least 0.7?
T

* * *

tested_system: Hck (UniProt P08631)
procedure_text: phosphorylation enrichment, bacterial display (enrichment ratio); higher = better substrate or ligand; peptides without Tyr show the background
Our labelling divides records by phosphorylation enrichment into ranges: low: < 0.5; medium: ≥ 0.5 and < 0.6; high: ≥ 0.6

Some entries whose results are on file:
DDERGYRRVRC [GIGYF2_Y268_S273C]	low
PVADPYDQSFE [MAPK14_Y323]	high
PGIRMYRVQYN [LRFN1_Y454_Q455R]	high
ELAKYYKLHHI [AK7_Y391_N389K]	low
QLFGPYLRIHA [BSCL2_Y213_A212P_YF]	medium

The entry to classify is QSPQLYKQMCI [DARS1_Y253] ; which class holds it?
high

Exercise: read the entry ARAFIYAIIPA [ACKtide_2014] and state which class it falls under.
high

Which band does ADGLEYSRTGL [MMUT_Y287] fall in?
high
